src = ChEMBL document CHEMBL1649452

Test system: Escherichia coli
Experiment: Bactericidal activity against Escherichia coli K-12 BW25113 biofilm harboring pCA24N ptac::yafQ plasmid assessed as log reduction of viable cells after 24 hrs pretreated with 5 uM of IPTG for 4 hrs
Assay type: functional, organism-based
Calls of active or inactive are those of the source. No cut-off for these calls is given here.
Can you answer with just one of these options? true (1) (active), false (0) (inactive)

### Prompt Dear colleague, could you share the recorded outcome for Cc1nnc(SCC2=C(C(=O)O)N3C(=O)[C@@H](NC(=O)Cn4cnnn4)[C@H]3SC2)s1 [CEFAZOLIN] when you have a moment?
### Response false (0)

### Prompt Dear colleague, could you share the recorded outcome for NC[C@H]1O[C@H](O[C@H]2[C@H](O)[C@@H](O[C@H]3O[C@H](CO)[C@@H](O)[C@H](N)[C@H]3O)[C@H](N)C[C@@H]2N)[C@H](N)C[C@@H]1O [TOBRAMYCIN] when you have a moment?
### Response false (0)

### Prompt Dear colleague, could you share the recorded outcome for CO[C@H]1/C=C/O[C@@]2(C)Oc3c(C)c(O)c4c(O)c(c(/C=N/N5CCN(C)CC5)c(O)c4c3C2=O)NC(=O)/C(C)=C\C=C\[C@H](C)[C@H](O)[C@@H](C)[C@@H](O)[C@@H](C)[C@H](OC(C)=O)[C@@H]1C [RIFAMPIN] when you have a moment?
### Response true (1)

### Prompt Dear colleague, could you share the recorded outcome for C[C@H]1c2cccc(O)c2C(=O)C2=C(O)[C@]3(O)C(=O)C(C(N)=O)=C(O)[C@@H](N(C)C)[C@@H]3[C@@H](O)[C@@H]21.O [DOXYCYCLINE] when you have a moment?
### Response true (1)

* * *

Tested on: Escherichia coli
Experiment: Antimicrobial activity against yafQ gene-deficient Escherichia coli K-12 BW25113 by broth microdilution method
Type: functional
OBSERVATION TYPE: MIC (µg/mL)
Give the number; µg/mL is assumed, so skip it.

response.value for NC[C@H]1O[C@H](O[C@H]2[C@H](O)[C@@H](O[C@H]3O[C@H](CO)[C@@H](O)[C@H](N)[C@H]3O)[C@H](N)C[C@@H]2N)[C@H](N)C[C@@H]1O [TOBRAMYCIN] (field: MIC) = 2

response.value for Cc1nnc(SCC2=C(C(=O)O)N3C(=O)[C@@H](NC(=O)Cn4cnnn4)[C@H]3SC2)s1 [CEFAZOLIN] (field: MIC) = 4

response.value for CO[C@H]1/C=C/O[C@@]2(C)Oc3c(C)c(O)c4c(O)c(c(/C=N/N5CCN(C)CC5)c(O)c4c3C2=O)NC(=O)/C(C)=C\C=C\[C@H](C)[C@H](O)[C@@H](C)[C@@H](O)[C@@H](C)[C@H](OC(C)=O)[C@@H]1C [RIFAMPIN] (field: MIC) = 16

response.value for C[C@H]1c2cccc(O)c2C(=O)C2=C(O)[C@]3(O)C(=O)C(C(N)=O)=C(O)[C@@H](N(C)C)[C@@H]3[C@@H](O)[C@@H]21.O [DOXYCYCLINE] (field: MIC) = 3

* * *

Test system: Escherichia coli
Assay: Antimicrobial activity against Escherichia coli K-12 BW25113 by broth microdilution method
Assay type: functional
OBSERVATION TYPE: MIC (µg/mL)
Give the number; µg/mL is assumed, so skip it.

Fill in: Escherichia coli MIC for CO[C@H]1/C=C/O[C@@]2(C)Oc3c(C)c(O)c4c(O)c(c(/C=N/N5CCN(C)CC5)c(O)c4c3C2=O)NC(=O)/C(C)=C\C=C\[C@H](C)[C@H](O)[C@@H](C)[C@@H](O)[C@@H](C)[C@H](OC(C)=O)[C@@H]1C = 16

Fill in: Escherichia coli MIC for NC[C@H]1O[C@H](O[C@H]2[C@H](O)[C@@H](O[C@H]3O[C@H](CO)[C@@H](O)[C@H](N)[C@H]3O)[C@H](N)C[C@@H]2N)[C@H](N)C[C@@H]1O = 1.5

Fill in: Escherichia coli MIC for C[C@H]1c2cccc(O)c2C(=O)C2=C(O)[C@]3(O)C(=O)C(C(N)=O)=C(O)[C@@H](N(C)C)[C@@H]3[C@@H](O)[C@@H]21.O = 4

Fill in: Escherichia coli MIC for Cc1nnc(SCC2=C(C(=O)O)N3C(=O)[C@@H](NC(=O)Cn4cnnn4)[C@H]3SC2)s1 = 4
